The measured values listed here are drawn from PubChem BioAssay.

# assay.summary: binders of probe aHhip on microarray, primary screen, stem cell growth factor project, biochemical, small-molecule microarray, fluorescence 635/667 (AID 1087);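 note: score merges spot fluorescence at 667nm with spot signal to noise ratio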
# particulars: higher = more signal

{"compound": "C=C(CCCC)C(=O)CC[C@@H](OC(=O)c1cccnc1)c1ccc(OCCO)cc1", "composite z-score": -0.0645}
{"compound": "CCN(CC)c1ccc(N2CC=CC34O[C@@H]5/C=C\\CCC(C)OC(=O)C5[C@H]3C(=O)N(C(C)CO)[C@@H]4C2=O)cc1 (stereo partly specified)", "composite z-score": -0.652}
{"compound": "CC(C)C[C@@H]1NC(=O)CNC(=O)[C@@]23C(=O)N[C@@H](Cc4ccccc4)C2[C@H](C)[C@@]2(C)O[C@H]2C3/C=C/C/C=C\\CNC1=O (stereo partly specified)", "composite z-score": -0.171}
{"compound": "CO[C@H]1O[C@H](CO)[C@@H](OC(=O)c2ccc(Br)cc2)[C@@H]2OC(=O)[C@H](Cc3ccccc3)C/C=C/C[C@@H](Cc3ccccc3)C(=O)O[C@@H]12", "composite z-score": -0.0645}
{"compound": "O=C1[C@@H]2[C@@H](CC(COc3ccccc3)=C3[C@@H](CCc4ccccc4)OB(O)C[C@@H]32)C(=O)N1Cc1ccccc1", "composite z-score": -0.289}
{"compound": "COc1ccc(C#Cc2ccc3c(c2)[C@]2(C(=O)N3)[C@H](C(=O)N3CCCCCCC3)[C@H]3C(=O)O[C@H](c4ccccc4)[C@H](c4ccccc4)N3[C@@H]2c2ccc(O)cc2)cc1", "composite z-score": 0.606}
{"compound": "CCOC(=O)C=Cc1cc(F)ccc1O", "composite z-score": 0.0524}
{"compound": "COc1ccc(C(O)C2C=CC3C(=O)N(c4ccccc4)C(=O)C3N2Nc2ccc(C(C)C)cc2)c2ccccc12 (stereo unspecified)", "composite z-score": -0.148}
{"compound": "CN1C(=O)C2C=CC(C(O)c3cc(C(F)(F)F)cc(C(F)(F)F)c3)N(NC(=O)OC(C)(C)C)C2C1=O (stereo unspecified)", "composite z-score": -0.0296}
{"compound": "[N-]=[N+]=NCc1ccccc1C[C@]1(C(=O)N2CCOCC2)COC(c2ccc(OCCCO)cc2)=N1", "composite z-score": -0.0237}
{"compound": "C=C(CCCC)C(=O)CC[C@H](OC(C)=O)c1ccc(OCCO)cc1", "composite z-score": 3.01}
{"compound": "CCOC(=O)C1=C[C@@H](C(C)(C)C)N(S(=O)(=O)c2ccc(C)cc2)[C@H]1c1cccc(Cl)c1", "composite z-score": -0.14}
{"compound": "COc1cc2c(cc1O)C(c1ccc(CN3CCCC3)cc1)N(C)CC2 (stereo unspecified)", "composite z-score": -0.81}
{"compound": "NCCCCCNC(=O)[C@@H]1C[C@@H]2C(=O)N3CCC[C@H]3C(=O)N2[C@@H]1c1ccc(O)cc1", "composite z-score": 0.0053}
{"compound": "CCOC(=O)C1=CCN(S(=O)(=O)c2ccc(C)cc2)C1c1ccccc1 (stereo unspecified)", "composite z-score": 0.113}
{"compound": "C=CC1c2cc(O)c(OC)cc2CCN1Cc1ccc([N+](=O)[O-])o1 (stereo unspecified)", "composite z-score": 0.245}

====

# assay.summary: P. aeruginosa biofilm formation inhibitors, primary screen, PAO1 strain, BacTiter-Glo luminescence, LB-PBS (AID 1144)
# particulars: 12 h, higher = more signal

{"compound": "CC(C)C(CO)N1C(=O)[C@@H]2[C@H]3C(=O)OCC=C[C@H]3OC23C=CCN(C(C)(C)C)C(=O)[C@@H]13 (some centres undefined)", "z-score": 0.947}
{"compound": "O=C1N[C@@H](Cc2ccccc2)C(=O)N2[C@@H]1C[C@@H](C(=O)O)[C@H]2c1ccc(O)cc1", "z-score": 0.106}
{"compound": "CCCCCCCCCCC(O)C1C=CC2C(=O)N(C)C(=O)C2N1Nc1cc(OC)c(OC)c(OC)c1 (centres undefined)", "z-score": 0.443}
{"compound": "O=C1[C@@H]2[C@@H](CC(COc3ccccc3)=C3[C@@H](CCc4ccccc4)OB(O)C[C@@H]32)C(=O)N1Cc1ccccc1", "z-score": 0.132}

====

# assay.summary: P. aeruginosa biofilm formation inhibitors, primary screen, PAO1 strain, BacTiter-Glo luminescence, LB-PBS (AID 1144)
# particulars: 12 h, higher = more signal
Calls of active or inactive are those of the source. No rule for the calls is given here.
value.type: z-score

{"compound": "CN1C(=O)C2C(C1=O)C1C=C(CCCO)C2C(c2cccs2)N1Cc1cc2c(cc1Br)OCO2 (stereo not drawn)", "measurement": "0.482 (inactive)"}
{"compound": "CC1CC/C=C\\[C@H]2OC34C=CCN(CCN5CCOCC5)C(=O)[C@H]3N(C(C)CO)C(=O)[C@@H]4C2C(=O)O1 (stereo partly drawn)", "measurement": "0.156 (inactive)"}
{"compound": "COC(=O)C1=CC(CCCO)=CC(c2ccc(CN3CCCC3)cc2)N(Cc2cc3c(cc2Br)OCO3)C=C1C(=O)OC (stereo not drawn)", "measurement": "-0.44 (inactive)"}
{"compound": "CCCCC=C[C@@H](NC(=O)c1ccccc1)c1ccccc1", "measurement": "-0.287 (inactive)"}
{"compound": "C=C(COC)/C(=C/C[C@@H](OC(C)=O)c1ccc(CO)o1)c1cc(C(=O)OC)ccc1OC", "measurement": "-0.921 (inactive)"}
{"compound": "NCCCCCNC(=O)[C@@H]1C[C@@H]2C(=O)N3CCC[C@H]3C(=O)N2[C@@H]1c1ccc(O)cc1", "measurement": "-0.113 (inactive)"}
{"compound": "COCCOC(=O)N1C(=O)[C@@]2(c3cc(C#CCCO)ccc31)[C@H](C(N)=O)[C@H]1C(=O)O[C@H](c3ccccc3)[C@H](c3ccccc3)N1[C@@H]2c1ccc(OCCO)cc1", "measurement": "-0.402 (inactive)"}
{"compound": "C=CCC(OC(C)=O)[C@@H]1[C@@H](N(Cc2cccc3ccccc23)C(=O)c2cccc3ccccc23)c2cc(OCCCO)ccc2N1C(=O)c1ccc2ccccc2c1 (stereo partly drawn)", "measurement": "0.311 (inactive)"}

====

# assay.summary: basal 3T3-L1 adipocyte mitochondrial potential changes, profiling panel, cell-based, JC-1 fluorescence, 3T3-L1 adipocytes, 24 h, 100 nL compound (AID 1168); note: test concentration not given here
# particulars: JC-1 mitochondrial fluorescence, higher = more signal, called active from +8 up or from −8 down
Recorded z-score for the following compounds
value.type: z-score

{"compound": "C=C(/C(=C/C[C@@H](OC(C)=O)c1ccc(OCCO)cc1)c1cc(C(=O)OC)ccc1OC)C(C)C", "measurement": -0.852}
{"compound": "C=C(C)[C@@H]1CC=C(C(O)C2C=CC3C(=O)N(c4ccccc4)C(=O)C3N2Nc2ccc(C#N)cc2)CC1 (some centres undefined)", "measurement": -2.61}
{"compound": "CCOC(=O)C[C@H]1[C@H](OC(=O)c2ccccc2-c2ccccc2)[C@@H](NC(=O)c2ccc3ccccc3n2)c2cc(OCCCO)ccc2N1C(=O)c1ccccc1", "measurement": -0.178}
{"compound": "CCCNC(=O)[C@@]1(Sc2ccc(C)cc2)CC(=O)N(C2CCCCC2)[C@@H]1c1ccc(CO)cc1I", "measurement": -0.764}

====

Recorded z-score for the following compounds
# target.entity: Luciferin 4-monooxygenase (Photinus pyralis) (UniProt P08659)
# Sequence (P08659 whole entry, looked up): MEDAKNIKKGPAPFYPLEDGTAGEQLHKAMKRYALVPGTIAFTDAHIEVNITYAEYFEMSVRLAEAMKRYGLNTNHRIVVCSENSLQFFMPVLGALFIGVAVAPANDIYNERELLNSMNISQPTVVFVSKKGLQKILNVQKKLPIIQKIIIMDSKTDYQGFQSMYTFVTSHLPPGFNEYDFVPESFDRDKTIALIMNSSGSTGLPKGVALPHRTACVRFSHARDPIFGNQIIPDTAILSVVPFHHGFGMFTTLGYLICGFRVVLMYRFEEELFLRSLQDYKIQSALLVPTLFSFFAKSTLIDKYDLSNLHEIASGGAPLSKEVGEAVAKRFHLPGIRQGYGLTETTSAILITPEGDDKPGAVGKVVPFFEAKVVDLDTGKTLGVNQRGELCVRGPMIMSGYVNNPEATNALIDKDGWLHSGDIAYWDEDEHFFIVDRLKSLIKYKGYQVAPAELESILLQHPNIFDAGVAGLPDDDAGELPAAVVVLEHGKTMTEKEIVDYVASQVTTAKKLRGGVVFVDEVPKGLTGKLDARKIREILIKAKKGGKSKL
# assay.summary: firefly luciferase enzyme inhibitors, primary screen, biochemical, luminescence, purified enzyme, 2006 set (AID 1141);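 note: cell-free assay with purified firefly luciferase at 100 ng per well in PBS; test concentration not given here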
# particulars: SteadyGlo luminescence, 30 min, higher = more signal, called active from +8 up or from −8 down

{"compound": "CC(=O)NCCCC[C@@H]1NC(=O)[C@H]2C[C@@H](C(=O)NCCCCCNC(=O)CS)[C@@H](c3cccc(OCCO)c3)N2C1=O", "target.entity": "Luciferin 4-monooxygenase (Photinus pyralis) (UniProt P08659)", "z-score": -1.36}
{"compound": "O=C1O[C@H](c2ccccc2)[C@H](c2ccccc2)N2[C@H]1[C@@H](C(=O)N1CCCCCCC1)[C@]1(C(=O)Nc3ccc(C#CC4(O)CCCCCC4)cc31)[C@H]2c1ccc(O)cc1", "target.entity": "Luciferin 4-monooxygenase (Photinus pyralis) (UniProt P08659)", "z-score": -0.0026}
{"compound": "O=C1C2C=CC(C(O)C=Cc3ccc([N+](=O)[O-])cc3)N(Nc3ccccc3)C2C(=O)N1c1ccccc1 (configuration not stated)", "target.entity": "Luciferin 4-monooxygenase (Photinus pyralis) (UniProt P08659)", "z-score": -1.65}
{"compound": "O=C(CS)NCCCCCCNC(=O)[C@@H]1C[C@@H]2C(=O)NCC(=O)N2[C@@H]1c1ccc(O)cc1", "target.entity": "Luciferin 4-monooxygenase (Photinus pyralis) (UniProt P08659)", "z-score": -1.38}
{"compound": "CCCC=C(CCC)[C@@H](NS(=O)(=O)c1cccc2cccnc12)c1ccc(-c2ccccc2)cc1", "target.entity": "Luciferin 4-monooxygenase (Photinus pyralis) (UniProt P08659)", "z-score": 2.06}
{"compound": "CCCNC(=O)[C@@]1(C)c2ccccc2C(=O)N(Cc2ccccc2)[C@H]1c1ccc(CO)cc1", "target.entity": "Luciferin 4-monooxygenase (Photinus pyralis) (UniProt P08659)", "z-score": -1.18}
{"compound": "[N-]=[N+]=NCc1ccccc1[C@H]1OC(c2ccc(OCCCO)cc2)=N[C@@]1(CCS(=O)(=O)c1ccccc1)C(=O)NCc1ccccc1", "target.entity": "Luciferin 4-monooxygenase (Photinus pyralis) (UniProt P08659)", "z-score": -1.41}
